test: Safety index, ratio of CC50 for mouse peritoneal macrophage to IC50 for promastigote stage of Leishmania amazonensis MPRO/BR/1972/M1841-LV-79; format: toxicity; details: read-out: Ratio CC50/IC50
outcome-measure: selectivity ratio

smiles-representation | outcome-measure | endpoint-value
O=C(/N=C(/NCc1ccccc1)Nc1ccc(F)cc1)c1ccccc1 | selectivity ratio | 39.5
Cc1ccc(N/C(=N\C(=O)c2ccccc2)NCc2ccccc2)cc1 | selectivity ratio | 41.9
O=C(/N=C(/NCc1ccccc1)Nc1ccccc1)c1ccccc1 | selectivity ratio | 1.6

---

tested on: Leishmania amazonensis; assay: Antileishmanial activity against Leishmania amazonensis MPRO/BR/1972/M1841-LV-79 amastigotes infected in mouse peritoneal macrophages assessed as parasite growth inhibition after 24 hrs by Giemsa staining-based microscopic method; format: functional, organism-based; conditions: MPRO/BR/1972/M1841-LV-79, 24 h
IC50 strictly under 20 µM means label 1; at 20 µM or over means label 0.

smiles-representation | tested-on | category-label
O=C(/N=C(/NCc1ccccc1)Nc1ccc(I)cc1)c1ccccc1 | Leishmania amazonensis | label 1
Cc1ccc(N/C(=N\C(=O)c2ccccc2)NCc2ccccc2)cc1 | Leishmania amazonensis | label 0
O=C(/N=C(/NCc1ccccc1)Nc1ccc(C(F)(F)F)cc1)c1ccccc1 | Leishmania amazonensis | label 0
CC(C)(C)c1ccc(N/C(=N\C(=O)c2ccccc2)NCc2ccccc2)cc1 | Leishmania amazonensis | label 1
O=C(/N=C(/NCc1ccccc1)Nc1ccc(F)cc1)c1ccccc1 | Leishmania amazonensis | label 1
O=C(/N=C(/NCc1ccccc1)Nc1ccc(Cl)cc1)c1ccccc1 | Leishmania amazonensis | label 0

Reference source for all entries: ChEMBL document CHEMBL4346679
